Below: a set of entries, each annotated with reported EC50.
TARGET_DESC: SARS-CoV-2 spike protein receptor binding domain (RBD) (SARS-CoV-2, UniProt P0DTC2 319-539)
PROTOCOL_TEXT: ELISA, RBD coated on plate, mAb titrated
Hi! Could you send only the number? It should be in ng/mL, unit omitted.

- C539 (antibody, V domains shown) VH: EVQLVESGGGLVQPGRSLRLSCAASGFTFDDYALHWVRQAPGKGLEWVSGISWNGDSIGYADSVKGRFTISRDNAKNSLSLQMNSLTAEDTALYYCAKGVEYSSSSNCDYWGQGTLVTVSS VL: DIQMTQSPSSVSASVGDRVTITCRASQDISSWLAWYQQKPGKAPKLLISLASGLQSGVPSRFSGSGSETDFTLTISSLQPEDFATYYCQQTNSFPLTFGGGTKVEI: 1.3
- C555 (antibody, V domains shown) VH: EVQLVESGGGLVKPGGSLRLSCAASGLTFSTTWMSWVRQAPGKGLEWVGRIKSKGDGGTTDFAGPVKGRFSISRDDSKNTLYLHMNSLKTEDTAVYYCTTDDPGSYYYGMDVWGQGTTVTVSS VL: QTVVTQEPSLTVSPGGTVTLTCASSTGAVTSGHYPYWFQQKPGQAPRTLIYATSNKHSWTPARFSGSLLGGKAALTLSGAQPEDEADYYCLLSYSGARVFGGGTKLTVL: 2.88
- C559 (antibody, V domains shown) VH: EVQLVQSGAEVKKPGESLKISCKVSGYTFTNYWIGWVRQMPGKGLEWMGIIFPGDSDTRYSPSFQGQVTISADRSITTAYLQWRSLKASDTAMYYCARVPSSSDYGDYGGFEYWGQGTLVTVSS VL: DIQMTQSPSSLSASVGDRVTITCRASQTITIYLNWYQQKPGKAPKLLIYAASSLQSGVPSRFSGSGSGTDFTLTISSLQPEDFATYYCQQSYSTPCSFGQGTKLEIK: 2.89
- C533 (antibody, V domains shown) VH: EVQLVESGGSLVKPGGSLRLSCVASGLTFNHAWMSWVRQAPGKGLEWVGRIKSKIDGGTTDYAAPVKGRFTISRDDSKSTQYLQMNSLKTEDTAVYYCTTDCFWRLGGTTCYEHDAFDVWGQGTMVTVSS VL: DIQMTQSPSSLSASVGDRVTITCRASQAIATFLNWYQQKPGKAPKLLIYAASSLQSGVPSRFSGSGSGTDFTLTISNLQPEDFATYYCQQSYNSLHFGGGTKVEIK: 1.61

Consider the additional binder presented here.
Data request, read-out EC50, for C553 (antibody, V domains shown) VH: QVQLVESGGGVVQPGRSLRLSCAASGFTFSNYEIHWVRQAPGKGLEWVAGISYDGSTKYYADSVKGRFTISRDNSKNTLYLQMNSLRPEDTAVFYCARAGTTNSDYFDYWGQGTLVTVSS VL: SYELTQPPSVSVAPGMTARITCGGNTIGSKSVHWYQQKAGQAPVLVIYYDSDRPSGIPERFSGSNSGNTATLTISRVEAGDEADYYCQVWDSSSVLWVFGGGTKLTVL 1.19

Source listed as patent US20220195015A1.
